Can you tell me ED50 for the items I'm about to list?
Test system: S. aureus RN450
ASSAY TEXT: In vivo anti-bacterial activity, S. aureus model
CONDITIONS USED: Staphylococcus aureus, sc; mice, lethal IP S. aureus RN450, subcutaneous, 24 hours; read-out: PD50 (dose that protects 50% of the animals)
Answers are plain numbers, in mg/kg.

# ENTRY SMILES, ED50 (mg/kg)
data = [
    ("CN(C)[C@@H]1C(O)=C(C(N)=O)C(=O)[C@@]2(O)C(O)=C3C(=O)c4c(O)ccc(CNOCCF)c4C[C@H]3C[C@@H]12", 0.48),
    ("CC(C)ONCc1ccc(O)c2c1C[C@H]1C[C@H]3[C@H](N(C)C)C(O)=C(C(N)=O)C(=O)[C@@]3(O)C(O)=C1C2=O", 1.1),
    ("CN(C)[C@@H]1C(O)=C(C(N)=O)C(=O)[C@@]2(O)C(O)=C3C(=O)c4c(O)ccc(CNOCC(F)(F)F)c4C[C@H]3C[C@@H]12", 1.11),
]

Turning now to a further compound:
**Q:** Lab note: need ED50 for C=CCONCc1ccc(O)c2c1C[C@H]1C[C@H]3[C@H](N(C)C)C(O)=C(C(N)=O)C(=O)[C@@]3(O)C(O)=C1C2=O on S. aureus RN450, anyone have it?
**A:** 0.23
